These entries and their values trace back to paper PMC6338552.

# measured_target: His6-JNK3α1 (UniProt P53779-2 1-422)
# experiment_summary: fluorescence polarisation
TMR = 6-carboxytetramethylrhodamine

[
  {
    "binder": "{TMR}-RPKRPTTLNLF-OH [TMR-JIPtide]",
    "Kd [µM]": 4.6
  }
]
